target: T1, FZD2 CRD (Homo sapiens, UniProt Q14332); test: Immunofluorescence of anti-FZD5 Fab binding to CHO cells overexpressing Frizzled CRD; design: key: −: no binding; +: very weak binder; ++: weak binder; +++: good binder; ++++: very good binder
T1 construct: D35-P161; GPI anchor signal (C); expressed in transfected cells; host or cells: CHO cells, lentiviral pLenti-puro
outcome_measure: Immunofluorescence binding, Frizzled CRD overexpressed on CHO cells: FZD2

INSERT INTO measurements (molecule, data_value) VALUES
  ('Fab-2912: anti-FZD5 Fab with antibody variable region Fv-2912; CDR SEQ ID NOs: 35, 36, 51, 90, 127, 164 (antibody, V domains shown) VH: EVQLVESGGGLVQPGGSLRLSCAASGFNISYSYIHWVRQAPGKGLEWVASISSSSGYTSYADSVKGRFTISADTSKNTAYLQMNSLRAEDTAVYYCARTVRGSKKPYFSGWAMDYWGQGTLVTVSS VL: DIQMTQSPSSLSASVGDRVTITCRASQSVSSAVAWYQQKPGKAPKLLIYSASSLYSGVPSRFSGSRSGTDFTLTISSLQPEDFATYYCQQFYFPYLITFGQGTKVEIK', '+++'),
  ('Fab-2936: anti-FZD5 Fab with antibody variable region Fv-2936; CDR SEQ ID NOs: 35, 36, 75, 112, 151, 179 (antibody, V domains shown) VH: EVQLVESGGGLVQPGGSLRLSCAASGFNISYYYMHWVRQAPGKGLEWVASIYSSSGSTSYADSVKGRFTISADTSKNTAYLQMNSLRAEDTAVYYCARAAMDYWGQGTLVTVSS VL: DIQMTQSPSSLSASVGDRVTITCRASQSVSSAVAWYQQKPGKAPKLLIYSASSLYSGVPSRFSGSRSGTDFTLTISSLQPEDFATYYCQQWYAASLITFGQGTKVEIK', '−');
